- System: LXRb homodimer (NR concentration 270 nM)
- assay.protocol: PBM binding z-score (relative to random genomic background probes); higher = stronger binding; sequences stand for … in GC…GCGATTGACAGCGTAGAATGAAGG
# cutoff -0.3 applies to PBM binding z-score; >= gives Yes, < gives No

## Input Decide: is the reported value of PBM binding z-score for ATCGCAAGGTCGTGAGGTGAGTATACAGAAAGGC equal to or greater than -0.3?
## Output No

## Input Decide: is the reported value of PBM binding z-score for CCGGGTAGGTTATGGGGCATTCAGGCAACGGTGA equal to or greater than -0.3?
## Output No

## Input Decide: is the reported value of PBM binding z-score for ATCGAAAGATCGACGAGGTGAGTATACACCGTTT equal to or greater than -0.3?
## Output No

## Input Decide: is the reported value of PBM binding z-score for GCACCAAGGTGAATAGGTCGTTGATGAGTAGGCG equal to or greater than -0.3?
## Output No

## Input Decide: is the reported value of PBM binding z-score for CTCGAGAGGTCGTGCTCAGGTGAGTATACCAAAC equal to or greater than -0.3?
## Output Yes

## Input Decide: is the reported value of PBM binding z-score for GATACAGGGTCAACGCCAGAGTACGCGTATTGAT equal to or greater than -0.3?
## Output Yes

## Input Decide: is the reported value of PBM binding z-score for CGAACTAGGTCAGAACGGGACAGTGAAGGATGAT equal to or greater than -0.3?
## Output No

## Input Decide: is the reported value of PBM binding z-score for TCTCGGAGTACACGAAGGTCAGAGCTTTCCAGAG equal to or greater than -0.3?
## Output No

## Input Decide: is the reported value of PBM binding z-score for ATCGAAGGGTCGAGGTGAGTATAGAGAAAGGGAA equal to or greater than -0.3?
## Output Yes

## Input Decide: is the reported value of PBM binding z-score for GCTTACGGGTCTAAGGTTATAGCATGAATAGAAT equal to or greater than -0.3?
## Output Yes

## Input Decide: is the reported value of PBM binding z-score for CCTACTGGGCCACGGAAGGTCATTGATTCAGTGA equal to or greater than -0.3?
## Output Yes

## Input Decide: is the reported value of PBM binding z-score for CCTTACGGGGCAAGGTTATAGCACGGGTGGTACG equal to or greater than -0.3?
## Output No

====

- Test system: PPARg DBDmut IVT, anti-PPARg (DBD mutation: PPARg1 K132A/R137A, NR concentration 270 nM)
- assay.protocol: PBM binding z-score (relative to random genomic background probes); higher = stronger binding; sequences stand for … in GC…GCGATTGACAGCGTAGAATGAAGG
measure: PBM binding z-score
Could you respond with only the numeric value?

## Input Respond only with PBM binding z-score recorded for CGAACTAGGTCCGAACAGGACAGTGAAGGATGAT
## Output -0.172

## Input Respond only with PBM binding z-score recorded for AATGCAGGGTCACTAGGCCAGAGTAGGTACGAAT
## Output 0.273

## Input Respond only with PBM binding z-score recorded for CCTAGCAGGCCAGGGGCACTCAAGCATTTCGCTT
## Output -1.6

## Input Respond only with PBM binding z-score recorded for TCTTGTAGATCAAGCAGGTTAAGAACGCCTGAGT
## Output -0.44

## Input Respond only with PBM binding z-score recorded for CTCGAAAGGTCGTGCTCAGGTGAGTAGACCAAAC
## Output 0.659

## Input Respond only with PBM binding z-score recorded for AGAATGAGGTTACCTAAGATCAGGGAAACGCTTG
## Output 0.151

## Input Respond only with PBM binding z-score recorded for TCTGCTAGGTCAGTTGGTCAGCCAACGAGCTGCC
## Output 0.334

## Input Respond only with PBM binding z-score recorded for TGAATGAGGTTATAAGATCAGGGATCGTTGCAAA
## Output 0.477

## Input Respond only with PBM binding z-score recorded for CCGACTGGGGCAGAACGGTTACCATACCATCCGG
## Output -1.18

## Input Respond only with PBM binding z-score recorded for CCGAGTGGGTTATGGGGCATTCAGGCAACGGTGA
## Output -0.669

## Input Respond only with PBM binding z-score recorded for CCTAGTTGGTCAGGAGGTCACACGCCGGATATGA
## Output -0.188

## Input Respond only with PBM binding z-score recorded for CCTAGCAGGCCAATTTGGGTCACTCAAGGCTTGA
## Output -1.39
